This collection of values is drawn from ChEMBL document CHEMBL6134779.

Test: Stability of the compound in ZnCl2 assessed as change in secondary structure by CD spectra analysis
Type: physicochemical
MEASURED PARAMETER: Stability

[
  {
    "SUBSTANCE SMILES": "CC[C@H](C)[C@H](N)C(=O)N[C@H](C(=O)N[C@H](CCCNC(=N)N)C(=O)N[C@@H](CCCNC(=N)N)C(=O)N[C@@H](Cc1c[nH]cn1)C(=O)N[C@H](C(=O)N[C@H](C(N)=O)[C@@H](C)CC)[C@@H](C)CC)[C@@H](C)CC",
    "RESULT": "Stable"
  },
  {
    "SUBSTANCE SMILES": "CC(C)[C@H](N)C(=O)N[C@H](C(=O)N[C@H](CCCNC(=N)N)C(=O)N[C@@H](CCCNC(=N)N)C(=O)N[C@@H](Cc1c[nH]cn1)C(=O)N[C@H](C(=O)N[C@H](C(=O)N[C@H](C(=O)N[C@H](C(=O)N[C@H](CCCNC(=N)N)C(=O)N[C@@H](CCCNC(=N)N)C(=O)N[C@@H](Cc1c[nH]cn1)C(=O)N[C@H](C(=O)N[C@H](C(N)=O)C(C)C)C(C)C)C(C)C)C(C)C)C(C)C)C(C)C)C(C)C",
    "RESULT": "Stable"
  },
  {
    "SUBSTANCE SMILES": "CC(C)[C@H](N)C(=O)N[C@H](C(=O)N[C@H](CCCNC(=N)N)C(=O)N[C@@H](CCCNC(=N)N)C(=O)N[C@@H](Cc1c[nH]cn1)C(=O)N[C@H](C(=O)N[C@H](C(N)=O)C(C)C)C(C)C)C(C)C",
    "RESULT": "Stable"
  }
]

###

System: Candida parapsilosis
Experiment: Antifungal activity against Candida parapsilosis CGMCC 2.3989 assessed as inhibition of fungal growth incubated for 48 hrs
Format: functional
Conditions: Lodderomyces parapsilosis
MEASURED PARAMETER: MIC95 (µM)
Give just the numeric value; µM need not be written.

[
  {
    "SUBSTANCE SMILES": "C[C@@H]1[C@H](O)[C@@H](C)/C=C/C=C/C=C/C=C/C=C/C=C/C=C/[C@H](O[C@@H]2O[C@H](C)[C@@H](O)[C@H](N)[C@@H]2O)C[C@@H]2O[C@](O)(C[C@@H](O)C[C@@H](O)[C@H](O)CC[C@@H](O)C[C@@H](O)CC(=O)O[C@H]1C)C[C@H](O)[C@H]2C(=O)O",
    "UNIT LABEL": "µM",
    "MIC95": 0.25
  }
]

Consider the additional compound presented here.
Problem: State its MIC95: "OC(Cn1cncn1)(Cn1cncn1)c1ccc(F)cc1F"
Solution: 4

###

System: Candida albicans
Assay: Antifungal activity against Candida albicans CGMCC 2.2086 assessed as inhibition of fungal growth incubated for 48 hrs in presence of KCl
Assay type: functional
MEASURED PARAMETER: MIC95

Some solved cases for reference:
[
  {
    "SUBSTANCE SMILES": "CC(C)[C@H](N)C(=O)N[C@H](C(=O)N[C@H](CCCNC(=N)N)C(=O)N[C@@H](CCCNC(=N)N)C(=O)N[C@@H](Cc1c[nH]cn1)C(=O)N[C@H](C(=O)N[C@H](C(N)=O)C(C)C)C(C)C)C(C)C",
    "STUDY TARGET": "Candida albicans",
    "MIC95": "> 64 µM"
  },
  {
    "SUBSTANCE SMILES": "CC(C)[C@H](N)C(=O)N[C@H](C(=O)N[C@H](CCCNC(=N)N)C(=O)N[C@@H](CCCNC(=N)N)C(=O)N[C@@H](Cc1c[nH]cn1)C(=O)N[C@H](C(=O)N[C@H](C(=O)N[C@H](C(=O)N[C@H](C(=O)N[C@H](CCCNC(=N)N)C(=O)N[C@@H](CCCNC(=N)N)C(=O)N[C@@H](Cc1c[nH]cn1)C(=O)N[C@H](C(=O)N[C@H](C(N)=O)C(C)C)C(C)C)C(C)C)C(C)C)C(C)C)C(C)C)C(C)C",
    "STUDY TARGET": "Candida albicans",
    "MIC95": "> 64 µM"
  }
]

Problem: State its MIC95: "CC[C@H](C)[C@H](N)C(=O)N[C@H](C(=O)N[C@H](CCCNC(=N)N)C(=O)N[C@@H](CCCNC(=N)N)C(=O)N[C@@H](Cc1c[nH]cn1)C(=O)N[C@H](C(=O)N[C@H](C(N)=O)[C@@H](C)CC)[C@@H](C)CC)[C@@H](C)CC"
Solution: > 64 µM

Problem: State its MIC95: "CC[C@H](C)[C@H](N)C(=O)N[C@H](C(=O)N[C@H](CCCNC(=N)N)C(=O)N[C@@H](CCCNC(=N)N)C(=O)N[C@@H](Cc1c[nH]cn1)C(=O)N[C@H](C(=O)N[C@H](C(=O)N[C@H](C(=O)N[C@H](C(=O)N[C@H](CCCNC(=N)N)C(=O)N[C@@H](CCCNC(=N)N)C(=O)N[C@@H](Cc1c[nH]cn1)C(=O)N[C@H](C(=O)N[C@H](C(N)=O)[C@@H](C)CC)[C@@H](C)CC)[C@@H](C)CC)[C@@H](C)CC)[C@@H](C)CC)[C@@H](C)CC)[C@@H](C)CC"
Solution: 32 µM

###

Test: Stability of the compound in NH4Cl assessed as change in secondary structure by CD spectra analysis
Type: physicochemical
MEASURED PARAMETER: Stability

[
  {
    "SUBSTANCE SMILES": "CC[C@H](C)[C@H](N)C(=O)N[C@H](C(=O)N[C@H](CCCNC(=N)N)C(=O)N[C@@H](CCCNC(=N)N)C(=O)N[C@@H](Cc1c[nH]cn1)C(=O)N[C@H](C(=O)N[C@H](C(N)=O)[C@@H](C)CC)[C@@H](C)CC)[C@@H](C)CC",
    "RESULT": "Stable"
  },
  {
    "SUBSTANCE SMILES": "CC(C)[C@H](N)C(=O)N[C@H](C(=O)N[C@H](CCCNC(=N)N)C(=O)N[C@@H](CCCNC(=N)N)C(=O)N[C@@H](Cc1c[nH]cn1)C(=O)N[C@H](C(=O)N[C@H](C(N)=O)C(C)C)C(C)C)C(C)C",
    "RESULT": "Stable"
  },
  {
    "SUBSTANCE SMILES": "CC(C)[C@H](N)C(=O)N[C@H](C(=O)N[C@H](CCCNC(=N)N)C(=O)N[C@@H](CCCNC(=N)N)C(=O)N[C@@H](Cc1c[nH]cn1)C(=O)N[C@H](C(=O)N[C@H](C(=O)N[C@H](C(=O)N[C@H](C(=O)N[C@H](CCCNC(=N)N)C(=O)N[C@@H](CCCNC(=N)N)C(=O)N[C@@H](Cc1c[nH]cn1)C(=O)N[C@H](C(=O)N[C@H](C(N)=O)C(C)C)C(C)C)C(C)C)C(C)C)C(C)C)C(C)C)C(C)C",
    "RESULT": "Stable"
  },
  {
    "SUBSTANCE SMILES": "CC[C@H](C)[C@H](N)C(=O)N[C@H](C(=O)N[C@H](CCCNC(=N)N)C(=O)N[C@@H](CCCNC(=N)N)C(=O)N[C@@H](Cc1c[nH]cn1)C(=O)N[C@H](C(=O)N[C@H](C(=O)N[C@H](C(=O)N[C@H](C(=O)N[C@H](CCCNC(=N)N)C(=O)N[C@@H](CCCNC(=N)N)C(=O)N[C@@H](Cc1c[nH]cn1)C(=O)N[C@H](C(=O)N[C@H](C(N)=O)[C@@H](C)CC)[C@@H](C)CC)[C@@H](C)CC)[C@@H](C)CC)[C@@H](C)CC)[C@@H](C)CC)[C@@H](C)CC",
    "RESULT": "Stable"
  }
]

###

Experiment: Stability of the compound in NaCl assessed as change in secondary structure by CD spectra analysis
Assay type: physicochemical

[
  {
    "SUBSTANCE SMILES": "CC[C@H](C)[C@H](N)C(=O)N[C@H](C(=O)N[C@H](CCCNC(=N)N)C(=O)N[C@@H](CCCNC(=N)N)C(=O)N[C@@H](Cc1c[nH]cn1)C(=O)N[C@H](C(=O)N[C@H](C(N)=O)[C@@H](C)CC)[C@@H](C)CC)[C@@H](C)CC",
    "Stability": "Unstable"
  },
  {
    "SUBSTANCE SMILES": "CC(C)[C@H](N)C(=O)N[C@H](C(=O)N[C@H](CCCNC(=N)N)C(=O)N[C@@H](CCCNC(=N)N)C(=O)N[C@@H](Cc1c[nH]cn1)C(=O)N[C@H](C(=O)N[C@H](C(N)=O)C(C)C)C(C)C)C(C)C",
    "Stability": "Unstable"
  },
  {
    "SUBSTANCE SMILES": "CC(C)[C@H](N)C(=O)N[C@H](C(=O)N[C@H](CCCNC(=N)N)C(=O)N[C@@H](CCCNC(=N)N)C(=O)N[C@@H](Cc1c[nH]cn1)C(=O)N[C@H](C(=O)N[C@H](C(=O)N[C@H](C(=O)N[C@H](C(=O)N[C@H](CCCNC(=N)N)C(=O)N[C@@H](CCCNC(=N)N)C(=O)N[C@@H](Cc1c[nH]cn1)C(=O)N[C@H](C(=O)N[C@H](C(N)=O)C(C)C)C(C)C)C(C)C)C(C)C)C(C)C)C(C)C)C(C)C",
    "Stability": "Unstable"
  }
]
